system: HAB1; assay: Yeast two hybrid of pBD-PYR1 site saturation mutants with pACT-HAB1 on 10 μM ABA, β-galactosidase staining; format: cell-based, Arabidopsis; design: key: x: Mutations in PYR1 that disrupt ABA-induced binding to PYR1 to HAB1; conditions: S. cerevisiae Y190, 10 μM ABA; dead = lack of visible staining in comparison to wild type control
ASSAY_ENDPOINT: Mutations in PYR1 that disrupt ABA-induced binding to PYR1 to HAB1

MOLECULE: G86W: PYR1 mutant (protein, UniProt O49686 1-191, looked up, variant G86W) Abscisic acid receptor PYR1: MPSELTPEERSELKNSIAEFHTYQLDPGSCSSLHAQRIHAPPELVWSIVRRFDKPQTYKHFIKSCSVEQNFEMRVGCTRDVIVISWLPANTSTERLDILDDERRVTGFSIIGGEHRLTNYKSVTTVHRFEKENRIWTVVLESYVVDMPEGNSEDDTRMFADTVVKLNLQKLATVAEAMARNSGDGSGSQVT
ASSAY_RESULT: x

MOLECULE: F159D: PYR1 mutant (protein, UniProt O49686 1-191, looked up, variant F159D) Abscisic acid receptor PYR1: MPSELTPEERSELKNSIAEFHTYQLDPGSCSSLHAQRIHAPPELVWSIVRRFDKPQTYKHFIKSCSVEQNFEMRVGCTRDVIVISGLPANTSTERLDILDDERRVTGFSIIGGEHRLTNYKSVTTVHRFEKENRIWTVVLESYVVDMPEGNSEDDTRMDADTVVKLNLQKLATVAEAMARNSGDGSGSQVT
ASSAY_RESULT: x

MOLECULE: D155R: PYR1 mutant (protein, UniProt O49686 1-191, looked up, variant D155R) Abscisic acid receptor PYR1: MPSELTPEERSELKNSIAEFHTYQLDPGSCSSLHAQRIHAPPELVWSIVRRFDKPQTYKHFIKSCSVEQNFEMRVGCTRDVIVISGLPANTSTERLDILDDERRVTGFSIIGGEHRLTNYKSVTTVHRFEKENRIWTVVLESYVVDMPEGNSEDRTRMFADTVVKLNLQKLATVAEAMARNSGDGSGSQVT
ASSAY_RESULT: x
